# experimental-system: HLA-B*07:02
# assay-text: IEDB peptide-MHC binding, purified MHC/direct/fluorescence; filed as Kd, often an IC50 or EC50 that approximates it; bounds were set here for any values at or beyond the usual limits of such assays
# test-settings: source organism: Giardia intestinalis
pKd: −log10 of the molar value.
value-kind: pKd

query: Any idea what its pKd is? The sequence is "INTLESMMK"
result: ≤ 4.70

====

# experimental-system: HLA-B*51:01
# assay-text: IEDB peptide-MHC binding, purified MHC/competitive/fluorescence; filed as Kd, often an IC50 or EC50 that approximates it; bounds were set here for any values at or beyond the usual limits of such assays
# test-settings: source organism: Orthohantavirus andesense
value-kind: Kd

query: Any idea what its Kd is? The sequence is "VWKQLFPEL"
result: ≥ 20 µM

====

# experimental-system: HLA-A*02:01
# assay-text: IEDB peptide-MHC binding, purified MHC/direct/fluorescence; filed as Kd, often an IC50 or EC50 that approximates it; bounds were set here for any values at or beyond the usual limits of such assays
# test-settings: source organism: Influenza A virus (A/England/627/01(H1N2))
value-kind: Kd

query: Any idea what its Kd is? The sequence is "KMARLGKGY"
result: ≥ 20 µM

====

# experimental-system: HLA-B*45:01
# assay-text: IEDB peptide-MHC binding, purified MHC/competitive/radioactivity; filed as Kd, often an IC50 or EC50 that approximates it; bounds were set here for any values at or beyond the usual limits of such assays
# test-settings: source organism: Mammarenavirus brazilense
Examples of sequences with documented Kd follow.
Supply the numeric figure in µM, leaving out any unit text.

Previously resolved entries follow.
query: Any idea what its Kd is? The sequence is "IDPTLTTWI"
result: 7.23

query: Any idea what its Kd is? The sequence is "GEHSLPRCW"
result: 8.74

Continuing:
query: Any idea what its Kd is? The sequence is "LESAQPGLL"
result: 13.5

====

Examples of sequences with documented Kd follow.
# experimental-system: HLA-A*02:01
# assay-text: IEDB peptide-MHC binding, purified MHC/competitive/radioactivity; filed as Kd, often an IC50 or EC50 that approximates it; bounds were set here for any values at or beyond the usual limits of such assays
# test-settings: source organism: Dengue virus 2 Jamaica/1409/1983
Supply the numeric figure in µM, leaving out any unit text.

Previously resolved entries follow.
query: Any idea what its Kd is? The sequence is "WMTTEDMLAV"
result: 0.0824

query: Any idea what its Kd is? The sequence is "ILIGVIITWI"
result: 0.0915

query: Any idea what its Kd is? The sequence is "YLALLAAFKV"
result: 0.00162

Now let's try a different one.
query: Any idea what its Kd is? The sequence is "LLILCVTQV"
result: 0.0272

====

# experimental-system: HLA-A*03:01
# assay-text: IEDB peptide-MHC binding, purified MHC/competitive/fluorescence; bounds were set here for any values at or beyond the usual limits of such assays
# test-settings: source organism: Vaccinia virus
pIC50: −log10 of the molar value.
Examples of sequences with documented pIC50 follow.

Previously resolved entries follow.
query: Any idea what its pIC50 is? The sequence is "WAMEKSSKY"
result: ≤ 3.58

query: Any idea what its pIC50 is? The sequence is "KLSYRNKPS"
result: ≤ 3.55

Now let's try a different one.
query: Any idea what its pIC50 is? The sequence is "LFGIKCIKK"
result: 4.50

====

# experimental-system: HLA-B*40:01
# assay-text: IEDB peptide-MHC binding, purified MHC/direct/fluorescence; filed as Kd, often an IC50 or EC50 that approximates it; bounds were set here for any values at or beyond the usual limits of such assays
# test-settings: source organism: H9N2 subtype Influenza A virus (A/swine/Korea/S83/2004(H9N2))
value-kind: Kd

query: Any idea what its Kd is? The sequence is "HFQKDAKVL"
result: ≥ 20 µM

====

# experimental-system: HLA-B*08:01
# assay-text: IEDB peptide-MHC binding, purified MHC/direct/fluorescence; filed as Kd, often an IC50 or EC50 that approximates it; bounds were set here for any values at or beyond the usual limits of such assays
# test-settings: source organism: Orthomarburgvirus marburgense
pKd: −log10 of the molar value.
value-kind: pKd

query: Any idea what its pKd is? The sequence is "NQECWDSVF"
result: ≤ 4.70

====

# experimental-system: HLA-A*11:01
# assay-text: IEDB peptide-MHC binding, purified MHC/competitive/fluorescence; bounds were set here for any values at or beyond the usual limits of such assays
# test-settings: source organism: Monodelphis domestica
pIC50: −log10 of the molar value.
value-kind: pIC50

query: Any idea what its pIC50 is? The sequence is "FLLPILSQIYT"
result: ≤ 4.70

====

# experimental-system: HLA-C*14:02
# assay-text: IEDB peptide-MHC binding, purified MHC/competitive/fluorescence; filed as Kd, often an IC50 or EC50 that approximates it; bounds were set here for any values at or beyond the usual limits of such assays
# test-settings: source organism: Salmonella enterica subsp. enterica serovar Typhi
value-kind: pKd
Hey, just a heads up that pKd is the negative log base 10 of the concentration in molar.

query: Lab note: need pKd for "WTFTPTTPL" on HLA-C*14:02, anyone have it?
result: 7.41

====

# experimental-system: HLA-A*68:02
# assay-text: IEDB peptide-MHC binding, purified MHC/direct/fluorescence; filed as Kd, often an IC50 or EC50 that approximates it; bounds were set here for any values at or beyond the usual limits of such assays
# test-settings: source organism: Influenza A virus (A/Quail/Shanghai/8/96(H9N2))
pKd: −log10 of the molar value.
value-kind: pKd

query: Any idea what its pKd is? The sequence is "LVGGREWSY"
result: ≤ 4.70

====

# experimental-system: HLA-B*44:02
# assay-text: IEDB peptide-MHC binding, purified MHC/direct/fluorescence; filed as Kd, often an IC50 or EC50 that approximates it; bounds were set here for any values at or beyond the usual limits of such assays
# test-settings: source organism: Yersinia pestis
pKd: −log10 of the molar value.
value-kind: pKd

query: Any idea what its pKd is? The sequence is "YGLGSTPLY"
result: ≤ 4.70

====

# experimental-system: HLA-A*30:02
# assay-text: IEDB peptide-MHC binding, purified MHC/competitive/radioactivity; filed as Kd, often an IC50 or EC50 that approximates it; bounds were set here for any values at or beyond the usual limits of such assays
# test-settings: source organism: Dengue virus 1 Brazil/97-11/1997
value-kind: Kd (µM)
Supply the numeric figure in µM, leaving out any unit text.

query: Lab note: need Kd for "RPQPMEHKY" on HLA-A*30:02, anyone have it?
result: 0.134

Continuing:
query: Lab note: need Kd for "FTMAHRKPTY" on HLA-A*30:02, anyone have it?
result: 0.744

query: Lab note: need Kd for "AGGMLIACY" on HLA-A*30:02, anyone have it?
result: 0.46

query: Lab note: need Kd for "LSKSEFNTY" on HLA-A*30:02, anyone have it?
result: 0.0111

====

# experimental-system: HLA-B*15:09
# assay-text: IEDB peptide-MHC binding, purified MHC/direct/fluorescence; filed as Kd, often an IC50 or EC50 that approximates it; bounds were set here for any values at or beyond the usual limits of such assays
# test-settings: source organism: Mammarenavirus lassaense
value-kind: Kd

query: Lab note: need Kd for "SHGIDVTDL" on HLA-B*15:09, anyone have it?
result: ≥ 20 µM

====

# experimental-system: HLA-A*68:02
# assay-text: IEDB peptide-MHC binding, purified MHC/competitive/radioactivity; filed as Kd, often an IC50 or EC50 that approximates it; bounds were set here for any values at or beyond the usual limits of such assays
# test-settings: source organism: Lassa virus Josiah
value-kind: Kd (nM)
Supply the numeric figure in nM, leaving out any unit text.

query: Any idea what its Kd is? The sequence is "LISIFLHLV"
result: 65.2

====

# experimental-system: HLA-B*35:01
# assay-text: IEDB peptide-MHC binding, purified MHC/competitive/fluorescence; filed as Kd, often an IC50 or EC50 that approximates it; bounds were set here for any values at or beyond the usual limits of such assays
# test-settings: source organism: Zaire ebolavirus
value-kind: Kd

query: Any idea what its Kd is? The sequence is "FIYFGKKQY"
result: 1490 nM

====

# experimental-system: HLA-B*46:01
# assay-text: IEDB peptide-MHC binding, purified MHC/direct/fluorescence; filed as Kd, often an IC50 or EC50 that approximates it; bounds were set here for any values at or beyond the usual limits of such assays
# test-settings: source organism: Mammarenavirus lassaense
pKd: −log10 of the molar value.
value-kind: pKd

query: Any idea what its pKd is? The sequence is "SHGIDVTDL"
result: ≤ 4.70
